# METHOD_SUMMARY: Plaque inhibition assay of sera from dosed mice (biological assay of antiviral activity in serum)
# Type: cell-based, Herpes simplex type 1 virus
# EXPERIMENTAL_CONTEXT: Experiment 1; 85 mins after dosing; single 100 mg/kg dose of BVDU; mouse serum; read-out: Antiviral activity in serum (BVDU equiv (µg/mL) ± Standard Deviation)
READOUT_KIND: concentration at 85 min (µg/mL)
Note: unit µg/mL is implicit; provide only the numeric part.

Q: What measured concentration at 85 min goes with "O=c1[nH]c(=O)n([C@H]2C[C@H](O)[C@@H](CO)O2)cc1/C=C/Br" ?
Ans: 4.7

---

# METHOD_SUMMARY: HPLC assay of BVDU, BVDU metabolite and probenecid in mouse serum
# Format: in vivo, female Balb/c mice
# EXPERIMENTAL_CONTEXT: mouse, in vivo, 100 mg/kg, Experiment 2, 120 mins after dosing, single dose, BVDU 100 mg/kg alone or with probenecid 100 or 200 mg/kg, read-out: Concentration (µg/mL) in Serum BVDU
READOUT_KIND: concentration at 2 h (µg/mL)
Note: unit µg/mL is implicit; provide only the numeric part.

Q: What measured concentration at 2 h goes with O=c1[nH]c(=O)n([C@H]2C[C@H](O)[C@@H](CO)O2)cc1/C=C/Br [BVDU, E-5-(2-bromovinyl)-2'-deoxyuridine] ?
Ans: 3.6
